# protocol_description: Property Forecast Index
# Format: physicochemical
# condition_parameters: chromatographic log D7.4 + aromatic ring count
recorded_endpoint: PFI
Lab note: write the figure by itself, no unit.

Past entries and their recorded results:
(Q) Record request: PFI value, item CCn1cnnc1C1CCN(C(=O)c2cn3ccc(C)cc3n2)CC1
(A) 4.2

(Q) Note, next up: COc1ccc(-c2nc(C(=O)Nc3cccc(-c4nnc5n4CCCCC5)c3)cs2)cc1OC
(A) 8.8

(Q) How about CC(=O)Nc1nc(-c2c(F)cccc2F)cs1 ?
(A) 5.7

Here's the next entry for you.
(Q) Can you look up the measured PFI of O=C(Nc1ccccc1C(=O)NC1CC1)c1cccc(N2CCCC2=O)c1 for me?
(A) 6

* * *

# protocol_description: Kinetic solubility
# Format: physicochemical
# condition_parameters: phosphate buffered saline, pH 7.4, aqueous buffer, kinetic from dmso stock
recorded_endpoint: solubility at 1 h (µg/mL)
Enter your answer as a number in µg/mL; do not include the unit.

(Q) Look at this compound and give its reported solubility at 1 h. CC(=O)Nc1nc(-c2c(F)cccc2F)cs1
(A) 16

(Q) Then what about the compound CCc1nnc(NC(=O)c2nc(-c3ccc(Cl)cc3)n3c2CCCCC3)s1 ?
(A) 2.5

***
(Q) // solubility at 1 h lookup, key: COc1ccc(-c2nc(C(=O)Nc3cccc(-c4nnc5n4CCCCC5)c3)cs2)cc1OC
(A) 10.5
